Readings of pIC50 for the listed compounds
# System: 922993-354-T-J3-PDC complex spheroid viability
# Assay info: Anticancer human tumor 922993-354-T-J3-PDC patient-derived endometrial carcinoma cell line growth inhibition [POLQ]
# Stated conditions: curve of first compound; second compound 0.316 µM
Just the number, please; pIC50 means minus log10 of the concentration in mol/L.

CC1COCCN1c1cc(-c2ccnn2C)c2ccnc(-c3ccn[nH]3)c2n1 (stereo not drawn) + COC1C(OC(N)=O)C(O)C(Oc2ccc3c(O)c(NC(=O)c4ccc(O)c(CC=C(C)C)c4)c(=O)oc3c2C)OC1(C)C    6.76

Field: next compound
Reported pIC50, compound COc1cccc(OCCCN)c1-c1cc(Nc2cnc(C#N)cn2)n[nH]1 + COC1C(OC(N)=O)C(O)C(Oc2ccc3c(O)c(NC(=O)c4ccc(O)c(CC=C(C)C)c4)c(=O)oc3c2C)OC1(C)C : ____
6.76

---

# Test system: 922993-354-T-J3-PDC complex spheroid viability
# Assay info: Anticancer human tumor 922993-354-T-J3-PDC cell line growth inhibition [POLQ];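 also: spheroids exposed to the agents for one week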;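 as to viability, T/C: 100% = DMSO vehicle control wells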
# Stated conditions: second compound 3.16 µM; first compound 1 µM; stronger effect = lower value
Metric name: viability, T/C (%)
# number only, unit % dropped from output

CC1COCCN1c1cc(-c2ccnn2C)c2ccnc(-c3ccn[nH]3)c2n1 (stereo not given) + Nc1ccc(C#CCN(C(=O)Cc2ncc(C(F)(F)F)cc2C(F)(F)F)c2ccc(F)cc2)nn1    33.8
CCc1cc2c(N3CCc4c(cc(Cn5ccnc5)cc4-c4cn(C)nc4C(F)(F)F)C3=O)ccnc2c(OC)n1 + Cc1cccc(N(C)C(=O)C2C(O)CCN2c2nc(C)cc(C(F)(F)F)c2C#N)c1    106
C=CC(=O)N1CCN(c2nc(=O)n(-c3c(C)ccnc3C(C)C)c3nc(-c4c(O)cccc4F)c(F)cc23)C(C)C1 (stereo not given) + COC1C(OC(N)=O)C(O)C(Oc2ccc3c(O)c(NC(=O)c4ccc(O)c(CC=C(C)C)c4)c(=O)oc3c2C)OC1(C)C    92
CNCc1ccc(-c2[nH]c3cc(F)cc4c3c2CCNC4=O)cc1 + Nc1ccc(C#CCN(C(=O)Cc2ncc(C(F)(F)F)cc2C(F)(F)F)c2ccc(F)cc2)nn1    93.9

Field: next molecule
Reported viability, T/C, molecule CC1COCCN1c1cc(-c2ccnn2C)c2ccnc(-c3ccn[nH]3)c2n1 (stereo not given) + COC1C(OC(N)=O)C(O)C(Oc2ccc3c(O)c(NC(=O)c4ccc(O)c(CC=C(C)C)c4)c(=O)oc3c2C)OC1(C)C : ____
9.41

---

Readings of pIC50 for the listed compounds
# System: 922993-354-T-J3-PDC complex spheroid viability
# Assay info: Anticancer human tumor 922993-354-T-J3-PDC cell line growth inhibition [POLQ];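 also: spheroids exposed to the agents for one week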
# Stated conditions: curve of first compound; second compound 3.16 µM
Just the number, please; pIC50 means minus log10 of the concentration in mol/L.

CCc1c2c(nc3ccc(O)cc13)-c1cc3c(c(=O)n1C2)COC(=O)[C@]3(O)CC + Cc1cccc(N(C)C(=O)C2C(O)CCN2c2nc(C)cc(C(F)(F)F)c2C#N)c1    7.89

Reported pIC50, compound COc1cc(C2c3cc4c(cc3C(OC3OC5COC(C)OC5C(O)C3O)C3COC(=O)C23)OCO4)cc(OC)c1O (stereo not given) + COC1C(OC(N)=O)C(O)C(Oc2ccc3c(O)c(NC(=O)c4ccc(O)c(CC=C(C)C)c4)c(=O)oc3c2C)OC1(C)C : ____
5.15

---

# Test system: 922993-354-T-J3-PDC complex spheroid viability
# Assay info: Anticancer human tumor 922993-354-T-J3-PDC cell line growth inhibition [POLQ];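 also: spheroids exposed to the agents for one week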;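 as to viability, T/C: 100% = DMSO vehicle control wells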
# Stated conditions: second compound 3.16 µM; first compound 0.1 µM; stronger effect = lower value
Metric name: viability, T/C (%)
# number only, unit % dropped from output

Sample records with viability, T/C:
CC1COCCN1c1cc(-c2ccnn2C)c2ccnc(-c3ccn[nH]3)c2n1 (configuration not stated) + Cc1cccc(N(C)C(=O)C2C(O)CCN2c2nc(C)cc(C(F)(F)F)c2C#N)c1    71.5
COc1cc(C2c3cc4c(cc3C(OC3OC5COC(C)OC5C(O)C3O)C3COC(=O)C23)OCO4)cc(OC)c1O (configuration not stated) + COC1C(OC(N)=O)C(O)C(Oc2ccc3c(O)c(NC(=O)c4ccc(O)c(CC=C(C)C)c4)c(=O)oc3c2C)OC1(C)C    97.7
COc1cccc(OCCCN)c1-c1cc(Nc2cnc(C#N)cn2)n[nH]1 + COC1C(OC(N)=O)C(O)C(Oc2ccc3c(O)c(NC(=O)c4ccc(O)c(CC=C(C)C)c4)c(=O)oc3c2C)OC1(C)C    70
CCc1c2c(nc3ccc(O)cc13)-c1cc3c(c(=O)n1C2)COC(=O)[C@]3(O)CC + COC1C(OC(N)=O)C(O)C(Oc2ccc3c(O)c(NC(=O)c4ccc(O)c(CC=C(C)C)c4)c(=O)oc3c2C)OC1(C)C    11.2
CC1COCCN1c1cc(C2(O)CC3CCC(C2)O3)c2cnn(-c3ccn[nH]3)c2n1 (configuration not stated) + COC1C(OC(N)=O)C(O)C(Oc2ccc3c(O)c(NC(=O)c4ccc(O)c(CC=C(C)C)c4)c(=O)oc3c2C)OC1(C)C    84.9

Reported viability, T/C, compound COc1cc2cc(C(=O)CCC(=O)O)sc2cc1OC + Nc1ccc(C#CCN(C(=O)Cc2ncc(C(F)(F)F)cc2C(F)(F)F)c2ccc(F)cc2)nn1 : ____
102

Reported viability, T/C, compound CC1COCCN1c1cc(C2(S(C)(=N)=O)CC2)nc(-c2ccnc3[nH]ccc23)n1 (configuration not stated) + Nc1ccc(C#CCN(C(=O)Cc2ncc(C(F)(F)F)cc2C(F)(F)F)c2ccc(F)cc2)nn1 : ____
95

Reported viability, T/C, compound O=C(c1cc(Cc2n[nH]c(=O)c3ccccc23)ccc1F)N1CCN(C(=O)C2CC2)CC1 + Nc1ccc(C#CCN(C(=O)Cc2ncc(C(F)(F)F)cc2C(F)(F)F)c2ccc(F)cc2)nn1 : ____
100

Reported viability, T/C, compound C=CCn1c(=O)c2cnc(Nc3ccc(N4CCN(C)CC4)cc3)nc2n1-c1cccc(C(C)(C)O)n1 + Nc1ccc(C#CCN(C(=O)Cc2ncc(C(F)(F)F)cc2C(F)(F)F)c2ccc(F)cc2)nn1 : ____
99.4

Reported viability, T/C, compound CCCS(=O)(=O)Nc1ccc(F)c(C(=O)c2c[nH]c3ncc(-c4ccc(Cl)cc4)cc23)c1F + COC1C(OC(N)=O)C(O)C(Oc2ccc3c(O)c(NC(=O)c4ccc(O)c(CC=C(C)C)c4)c(=O)oc3c2C)OC1(C)C : ____
103

Reported viability, T/C, compound COc1ccc([C@@H](O)c2cc(-c3ncnc4cc(N5CCOCC5)ccc34)c(F)cc2Cl)nn1 + COC1C(OC(N)=O)C(O)C(Oc2ccc3c(O)c(NC(=O)c4ccc(O)c(CC=C(C)C)c4)c(=O)oc3c2C)OC1(C)C : ____
93.1

Reported viability, T/C, compound O=C(Nc1ccc(O)c(NS(=O)(=O)c2ccc(F)cc2)c1)c1ccc(-c2ccccc2)cc1 + Cc1cccc(N(C)C(=O)C2C(O)CCN2c2nc(C)cc(C(F)(F)F)c2C#N)c1 : ____
101

Reported viability, T/C, compound CC1COCCN1c1cc(-c2ccnn2C)c2ccnc(-c3ccn[nH]3)c2n1 (configuration not stated) + COC1C(OC(N)=O)C(O)C(Oc2ccc3c(O)c(NC(=O)c4ccc(O)c(CC=C(C)C)c4)c(=O)oc3c2C)OC1(C)C : ____
60

Reported viability, T/C, compound Cn1ncnc1[C@H]1c2n[nH]c(=O)c3cc(F)cc(c23)N[C@@H]1c1ccc(F)cc1 + COC1C(OC(N)=O)C(O)C(Oc2ccc3c(O)c(NC(=O)c4ccc(O)c(CC=C(C)C)c4)c(=O)oc3c2C)OC1(C)C : ____
79.4

Reported viability, T/C, compound CCc1cc2c(N3CCc4c(cc(Cn5ccnc5)cc4-c4cn(C)nc4C(F)(F)F)C3=O)cc(C)nc2c(OC)n1 + Nc1ccc(C#CCN(C(=O)Cc2ncc(C(F)(F)F)cc2C(F)(F)F)c2ccc(F)cc2)nn1 : ____
107

Reported viability, T/C, compound CC[C@@]1(O)C(=O)OCc2c1cc1n(c2=O)Cc2cc3c(CN(C)C)c(O)ccc3nc2-1 + COC1C(OC(N)=O)C(O)C(Oc2ccc3c(O)c(NC(=O)c4ccc(O)c(CC=C(C)C)c4)c(=O)oc3c2C)OC1(C)C : ____
37.2

Reported viability, T/C, compound CC[C@@]1(O)C(=O)OCc2c1cc1n(c2=O)Cc2cc3c(CN(C)C)c(O)ccc3nc2-1 + Nc1ccc(C#CCN(C(=O)Cc2ncc(C(F)(F)F)cc2C(F)(F)F)c2ccc(F)cc2)nn1 : ____
72.9
